Tested on: RXF 393 renal
test summary: NCI-60 one-dose screen, 48 h
experimental parameters: 10 µM unless noted
Compounds without any hit were thinned out: in the full panel of roughly 83,000, 20% have a hit. The source made the active and inactive calls. The calls were made as follows: active = growth percent below 10; inactive = the rest.
Classes used: 1 (active), -1 (inactive)

1) CCc1c(C)c2cc3nc(NCc4ccccc4)oc3c(C)c2oc1=O    -1
2) O=C(Nc1ccc(-n2cc(-c3ccncc3)c(-c3ccc(O)c(Cl)c3)n2)cc1)c1cc(C(F)(F)F)cc(C(F)(F)F)c1    1
3) NC(N)=N/N=C/c1ccc([N+](=O)[O-])cc1    -1
4) Nc1ccc(S(=O)(=O)Nc2cc(I)cc(I)c2)cc1    -1
5) COc1ccc(NC(=O)COCCOCCNC[C@@H]2C(=O)O[C@H]3[C@H]2CC/C(COC(=O)OC/C2=C/CC[C@@]4(C)O[C@H]4[C@H]4OC(=O)[C@@H](CN(C)C)[C@@H]4CC2)=C\CC[C@@]2(C)O[C@@H]32)c(O)c1C(N)=O    1
6) CC(Cc1cccc(C(F)(F)F)c1)NCCOC(=O)c1ccccc1 (centres undefined)    -1
7) CC(C)Cn1cnc2c3ccccc3nc(NCn3nc(-c4cc(Cl)cc(Cl)c4Cl)oc3=S)c21    -1
8) CCN(CC)CCC(C(=O)O)(c1ccccc1)c1ccccc1    -1
9) CS(=O)(=O)OCC(COS(C)(=O)=O)C(c1ccccc1)c1ccccc1    -1
10) OC(COc1ccccc1Cl)CN1CCN(c2ccc(Cl)cc2)CC1 (centres undefined)    -1
11) COc1ccc2c(c1)nnc1c3cccnc3[nH]c21    1
12) CCCCNC(=O)Oc1ccc(/C(=C(/CC)Cc2ccccc2)c2ccc(OCCCN(C)C)cc2)cc1    -1
13) CCN1CCN(Cc2ccc(NC(=O)Nc3cccc(-n4ccc5c(NC(=O)c6ccccc6)nccc54)c3)cc2C(F)(F)F)CC1    -1
14) O=c1c2ccccc2sc2c(NCCN3CCOCC3)nc3ccccc3c12    -1
15) Cc1nccc2c3ccc(OCc4cn(Cc5ccc(Br)cc5)nn4)cc3n(CCCc3ccccc3)c12    -1
16) Cc1ccc(Cn2cc(COc3ccc4c5ccnc(C)c5n(CCCc5ccccc5)c4c3)nn2)cc1    -1
17) CCOC(=O)CSc1nnc(-c2cc3c([nH]c4ccccc43)c(-c3cccc(O)c3)n2)n1-c1ccc(C)cc1    -1
18) NC(CCCC(N)C(=O)c1ccccc1)C(=O)O (centres undefined)    -1
19) CN1CCN(Cn2nc(-c3cc(Cl)cc(Cl)c3Cl)n(/N=C/c3ccc(Cl)cc3)c2=S)CC1    -1

Values compiled from PubChem BioAssay (NCI).
